# tested.system: recombinant human CK2 (Homo sapiens, UniProt P68400)
# Sequence (P68400 whole entry): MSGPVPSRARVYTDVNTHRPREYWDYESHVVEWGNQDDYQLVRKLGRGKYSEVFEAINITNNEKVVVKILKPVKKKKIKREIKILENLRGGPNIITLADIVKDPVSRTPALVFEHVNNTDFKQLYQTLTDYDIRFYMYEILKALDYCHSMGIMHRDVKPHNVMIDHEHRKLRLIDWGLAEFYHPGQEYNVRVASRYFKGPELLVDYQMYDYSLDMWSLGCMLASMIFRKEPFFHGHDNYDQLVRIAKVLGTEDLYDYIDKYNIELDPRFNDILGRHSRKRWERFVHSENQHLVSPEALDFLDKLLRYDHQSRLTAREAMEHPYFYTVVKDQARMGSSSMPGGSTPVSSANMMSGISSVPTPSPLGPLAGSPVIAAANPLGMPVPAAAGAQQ
# Sequence (P67870 whole entry partner): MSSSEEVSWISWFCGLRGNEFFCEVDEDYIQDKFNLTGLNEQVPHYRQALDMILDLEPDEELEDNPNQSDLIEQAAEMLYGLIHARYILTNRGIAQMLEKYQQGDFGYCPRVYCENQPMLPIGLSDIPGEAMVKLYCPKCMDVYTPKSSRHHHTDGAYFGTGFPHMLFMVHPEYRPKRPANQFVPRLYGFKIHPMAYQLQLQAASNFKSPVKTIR
# measurement.protocol: CK2 Kinase Assay (33P-ATP, filter plate)
# test.parameters: final ATP concentration 15 μM, 10 min at 30° C.; read-out: protein kinase CK2 activity IC50
# Method: CK2 Kinase Assay was conducted using the protocol as described in Pierre F. et al; J. Med. Chem. 2011, 54, 635-654. […]
readout.kind: pIC50
As a rule, pIC50 stands for the negative log10 of the concentration, concentration in M.

Task: Checklist item: pIC50 tested on recombinant human CK2 (Homo sapiens, UniProt P68400), entry O=C(O)c1nnc2c3cnccc3nc(Nc3cccc(Cl)c3)n12 [Compound 1] , value?
Result: 7.49
